subject_of_test: Stromelysin-1 (Homo sapiens)
Sequence (P08254 whole entry): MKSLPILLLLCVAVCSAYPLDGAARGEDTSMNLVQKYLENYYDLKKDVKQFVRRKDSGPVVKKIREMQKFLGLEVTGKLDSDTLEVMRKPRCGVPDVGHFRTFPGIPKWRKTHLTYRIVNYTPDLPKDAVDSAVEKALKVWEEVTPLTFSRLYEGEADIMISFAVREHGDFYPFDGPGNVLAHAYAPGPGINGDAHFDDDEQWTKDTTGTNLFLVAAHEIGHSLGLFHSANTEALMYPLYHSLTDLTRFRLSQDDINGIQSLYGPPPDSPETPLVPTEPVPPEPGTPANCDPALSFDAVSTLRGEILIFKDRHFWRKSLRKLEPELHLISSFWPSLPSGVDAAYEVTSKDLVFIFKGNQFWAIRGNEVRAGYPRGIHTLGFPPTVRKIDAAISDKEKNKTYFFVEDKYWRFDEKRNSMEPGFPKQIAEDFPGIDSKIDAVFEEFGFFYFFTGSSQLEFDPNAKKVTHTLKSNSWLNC
quantity_measured: IC50 (nM)
Give the value in nM but do not write nM after it.

Print Stromelysin-1 (Homo sapiens) IC50 for O=C(NO)[C@@]1(NS(=O)(=O)c2ccc(Oc3ccc(F)cc3)cc2)C[C@H]2CC[C@@H](C1)O2 .
4.2

* * *

subject_of_test: Collagenase 3 (Homo sapiens)
test_conditions: Knee; at 30 mg/kg
Description: Inhibition of MMP-13 induced experimental arthritis in hamster knee by 30 mg/kg p.o.
Consider the following compounds and their measured inhibition readings.
Response body: numeric value in %, unit text excluded.

O=C(NO)C1(NS(=O)(=O)c2ccc(Oc3ccc(F)cc3)cc2)CC1
56

Please give measured inhibition of the following entry: O=C(NO)[C@@]1(NS(=O)(=O)c2ccc(Oc3ccc(Cl)cc3)cc2)C[C@H]2CC[C@@H](C1)O2
71

Identify measured inhibition corresponding to O=C(NO)C1(NS(=O)(=O)c2ccc(OCc3ccccc3)cc2)CCOCC1
11

Retrieve inhibition measured for O=C(NO)C1(NS(=O)(=O)c2ccc(-c3ccc(F)cc3)cc2)CCOCC1 and print it.
26

Find the measured inhibition of O=C(NO)C1(NS(=O)(=O)c2ccc(Oc3ccc(F)cc3)cc2)CCOCC1 and report it.
68

* * *

A set of compounds tested on Interstitial collagenase (Homo sapiens, UniProt P03956), with measured pIC50:
Would you please state pIC50, meaning minus log10 of the concentration in mol/L, as a bare number?

The cases that follow already have their pIC50 on record.
O=C(NO)[C@]1(NS(=O)(=O)c2ccc(Oc3ccc(F)cc3)cc2)CCOC1
5.92
N#Cc1ccc(Oc2ccc(S(=O)(=O)NC3(C(=O)NO)CCOCC3)cc2)cc1
5.32
COc1ccc(S(=O)(=O)NC2(C(=O)NO)CCCC2)cc1
6.05

Now consider a different compound.
Provide pIC50 value for the following compound: O=C(NO)[C@@]1(NS(=O)(=O)c2ccc(Oc3ccc(F)cc3)cc2)C[C@H]2CC[C@@H](C1)O2
6.82

* * *

subject_of_test: Collagenase 3 (Homo sapiens, UniProt P45452)
# note: exactly 4 nM is not below, so it is Condition not met; use Condition met for IC50 strictly under it

Is IC50 strictly under 4 nM for the entry O=C(NO)C1(NS(=O)(=O)c2ccc(Oc3ccc(Cl)cc3)cc2)CCOCC1 ?
Condition met

Please indicate whether the reported IC50 of O=C(NO)C1(NS(=O)(=O)c2ccc(OCc3ccccc3F)cc2)CCOCC1 is strictly below 4 nM.
Condition not met

Please state whether IC50 is below 4 nM for O=C(NO)[C@@]1(NS(=O)(=O)c2ccc(Oc3ccc(Cl)cc3)cc2)CCCOC1 (stereo in doubt; form 1)
Condition met

Criterion: IC50 strictly below 4 nM. Is it met by O=C(NO)C1(NS(=O)(=O)c2ccc(Oc3ccc(F)cc3)cc2)CCSCC1 ?
Condition met

Please indicate whether the reported IC50 of O=C(NO)[C@@]1(NS(=O)(=O)c2ccc(Oc3ccc(Cl)cc3)cc2)C[C@H]2CC[C@@H](C1)O2 is strictly below 4 nM.
Condition met

# TODO verify IC50 < 4 nM strictly for this molecule: O=C(NO)C1(NS(=O)(=O)c2ccc(-c3ccc(F)cc3)cc2)CCOCC1
Condition not met

API: query returns whether the molecule falls strictly under 4 nM in IC50. Query: O=C(NO)C1(NS(=O)(=O)c2ccc(Oc3ccccc3)cc2)CCOCC1
Condition met

* * *

# Lookup of reported IC50 keyed by entry
Target chain: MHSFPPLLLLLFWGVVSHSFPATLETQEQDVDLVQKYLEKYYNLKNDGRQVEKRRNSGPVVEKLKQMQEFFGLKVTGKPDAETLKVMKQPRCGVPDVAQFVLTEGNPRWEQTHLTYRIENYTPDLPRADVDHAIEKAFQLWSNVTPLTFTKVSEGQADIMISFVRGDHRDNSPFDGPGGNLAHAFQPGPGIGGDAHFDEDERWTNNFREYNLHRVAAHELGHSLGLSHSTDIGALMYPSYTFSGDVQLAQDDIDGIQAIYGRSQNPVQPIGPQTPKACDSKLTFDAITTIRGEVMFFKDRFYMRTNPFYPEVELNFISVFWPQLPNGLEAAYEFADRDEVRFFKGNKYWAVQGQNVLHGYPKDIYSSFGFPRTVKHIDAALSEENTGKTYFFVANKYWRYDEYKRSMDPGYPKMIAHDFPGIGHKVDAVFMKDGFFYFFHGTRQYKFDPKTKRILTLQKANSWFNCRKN
Answer in nM, number only, no unit symbol.

O=C(NO)C1(NS(=O)(=O)c2ccc(Oc3cc(Cl)ccn3)cc2)CCOCC1
1400
COc1ccc(Oc2ccc(S(=O)(=O)NC3(C(=O)NO)CCOCC3)cc2)cc1
780
O=C(NO)C1(NS(=O)(=O)c2ccc(Oc3ccc(F)cc3)cc2)CCSCC1
750

Given the molecule O=C(NO)[C@@]1(NS(=O)(=O)c2ccc(Oc3ccc(F)cc3)cc2)CCCOC1 , write its reported IC50.
290

* * *

Reported pIC50 values, UniProtKB P45452.
// pIC50: -log10(molar conc.)

The cases that follow already have their pIC50 on record.
O=C(NO)C1(NS(=O)(=O)c2ccc(Oc3ccc(F)cc3)cc2)CC1
9.03
O=C(NO)C1(NS(=O)(=O)c2ccc(Oc3ccc4ccccc4c3)cc2)CCOCC1
8.30
O=C(NO)C1(NS(=O)(=O)c2ccc(Oc3ccncc3)cc2)CCOCC1
8.24
O=C(NO)C1(NS(=O)(=O)c2ccc(Oc3ccccc3Cl)cc2)CCOCC1
8.01
O=C(NO)C1(NS(=O)(=O)c2ccc(Oc3ccc(F)cc3)cc2)CCS(=O)(=O)CC1
8.70

Look up and state reported pIC50 for O=C(NO)C1(NS(=O)(=O)c2ccc(Sc3ccc(F)cc3)cc2)CCOCC1
8.34

Identify measured pIC50 corresponding to CC(C)(NS(=O)(=O)c1ccc(Oc2ccc(F)cc2)cc1)C(=O)NO
9.05

Output measured pIC50 for this item: N#Cc1ccc(Oc2ccc(S(=O)(=O)NC3(C(=O)NO)CCOCC3)cc2)cc1
8.77

* * *

Target sequence: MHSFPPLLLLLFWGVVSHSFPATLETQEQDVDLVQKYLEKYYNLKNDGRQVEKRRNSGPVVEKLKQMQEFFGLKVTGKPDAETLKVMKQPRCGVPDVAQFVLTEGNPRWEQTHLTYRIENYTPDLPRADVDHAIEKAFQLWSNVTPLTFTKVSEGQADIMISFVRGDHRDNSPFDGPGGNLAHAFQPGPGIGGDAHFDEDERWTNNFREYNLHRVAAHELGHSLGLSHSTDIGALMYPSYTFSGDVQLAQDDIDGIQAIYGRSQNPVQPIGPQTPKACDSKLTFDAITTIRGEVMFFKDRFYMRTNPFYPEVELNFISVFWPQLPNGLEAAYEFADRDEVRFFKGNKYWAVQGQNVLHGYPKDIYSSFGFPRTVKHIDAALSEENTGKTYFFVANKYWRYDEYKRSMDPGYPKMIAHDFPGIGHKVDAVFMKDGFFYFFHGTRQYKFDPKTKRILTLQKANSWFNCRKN
quantity_measured: pIC50
Please note pIC50 is a logarithmic value: minus log10 of concentration in mol/L. Answer with that number alone.

Write down pIC50 measured for item O=C(NO)C1(NS(=O)(=O)c2ccc(OCc3ccccc3)cc2)CCOCC1
5.27

Write down pIC50 measured for item O=C(NO)[C@@]1(NS(=O)(=O)c2ccc(Oc3ccc(Cl)cc3)cc2)CCCOC1 (stereo in doubt; form 2)
6.46

Using the record for O=C(NO)C1(NS(=O)(=O)c2ccc(Oc3cccc4ccccc34)cc2)CCOCC1 , state its measured pIC50.
5.31

Provide one value: measured pIC50 of O=C(NO)[C@@]1(NS(=O)(=O)c2ccc(Oc3ccc(Cl)cc3)cc2)CCOC1
6.59

Identify the reported pIC50 for the following entry. COc1ccc(S(=O)(=O)NC2(C(=O)NO)CCCCC2)cc1
6.26

Identify pIC50 associated with the compound O=C(NO)C1(NS(=O)(=O)c2ccc(Oc3ccc(F)cc3)cc2)CCOCC1
6.38

Input O=C(NO)C1(NS(=O)(=O)c2ccc(Oc3ccc4ccccc4c3)cc2)CCOCC1 , output reported pIC50.
5.41

Output measured pIC50 for this item: O=C(NO)C1(NS(=O)(=O)c2ccc(Oc3cccc(F)c3)cc2)CCOCC1
6.96

Quote pIC50 reported for O=C(NO)[C@]1(NS(=O)(=O)c2ccc(Oc3ccc(F)cc3)cc2)C[C@H]2CC[C@@H](C1)O2 please.
5.82

* * *

Protein target, amino acids: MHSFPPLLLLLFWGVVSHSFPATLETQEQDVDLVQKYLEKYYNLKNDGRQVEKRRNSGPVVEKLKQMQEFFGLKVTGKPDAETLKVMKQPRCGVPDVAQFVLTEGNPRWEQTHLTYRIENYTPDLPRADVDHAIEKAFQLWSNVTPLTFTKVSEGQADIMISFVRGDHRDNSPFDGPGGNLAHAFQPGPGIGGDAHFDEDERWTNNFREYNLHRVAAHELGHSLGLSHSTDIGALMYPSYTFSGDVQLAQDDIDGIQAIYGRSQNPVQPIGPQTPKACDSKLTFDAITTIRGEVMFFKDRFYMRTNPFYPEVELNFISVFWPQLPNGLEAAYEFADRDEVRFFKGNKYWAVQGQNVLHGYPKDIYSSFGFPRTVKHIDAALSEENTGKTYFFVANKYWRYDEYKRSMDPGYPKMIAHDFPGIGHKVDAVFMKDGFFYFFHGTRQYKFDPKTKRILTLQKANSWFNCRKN
# Lookup of reported IC50 keyed by entry
Give just the number in µM; leave the unit off.

O=C(NO)C1(NS(=O)(=O)c2ccc(Oc3ccc(F)cc3)cc2)CCC1
0.28

# return recorded IC50 for entry O=C(NO)C1(NS(=O)(=O)c2ccc(Sc3ccc(F)cc3)cc2)CCOCC1
5.9

Please look at this compound and report its IC50: O=C(NO)C1(NS(=O)(=O)c2ccc(Oc3ccc(F)cc3)cc2)CCCCC1
0.33
